# PROTOCOL_TEXT: Absorption and fluorescence spectra, extinction coefficient, fluorescence quantum yield
# Type: physicochemical
# ASSAY_CONDITIONS: Table 10, i-PrOH

[
  {
    "INPUT_SMILES": "C[n+]1ccc(/C=C/C=C/C2=C([O-])c3ccccc3S2(=O)=O)cc1",
    "Observed absorption λmax": "597 nm"
  },
  {
    "INPUT_SMILES": "C[n+]1ccc(/C=C/C2=C([O-])c3ccccc3S2(=O)=O)cc1",
    "Observed absorption λmax": "518 nm"
  },
  {
    "INPUT_SMILES": "Cn1c([O-])c(/C=C/C=C/c2cc[n+]3c(c2)C(C)(C)c2ccccc2-3)c(=O)n(C)c1=O",
    "Observed absorption λmax": "614 nm"
  },
  {
    "INPUT_SMILES": "CC1(C)c2ccccc2-[n+]2ccc(/C=C/C3=C([O-])c4ccccc4S3(=O)=O)cc21",
    "Observed absorption λmax": "553 nm"
  },
  {
    "INPUT_SMILES": "CC1(C)c2ccccc2-[n+]2ccc(/C=C/C=C/C3=C(O)c4ccccc4S3(=O)=O)cc21",
    "Observed absorption λmax": "648 nm"
  },
  {
    "INPUT_SMILES": "CCn1c([O-])c(/C=C/C=C/c2cc[n+]3c(c2)C(C)(C)c2ccccc2-3)c(=O)n(CC)c1=S",
    "Observed absorption λmax": "618 nm"
  }
]

----------
Listed below: Emission λmax values for each entry.
# PROTOCOL_TEXT: Absorption and fluorescence spectra, extinction coefficient, fluorescence quantum yield
# Assay type: physicochemical
# ASSAY_CONDITIONS: Methanol (MeOH)

[
  {
    "COMPOUND": "CC1(C)c2ccccc2-[n+]2ccc(/C=C/C=C/C3=C(O)c4ccccc4S3(=O)=O)cc21",
    "U": "nm",
    "Emission λmax": 654
  },
  {
    "COMPOUND": "CCn1c(O)c(/C=C/C=C(\\C#N)c2cc[n+]3c(c2)C(C)(C)c2ccccc2-3)c(=O)n(CC)c1=S",
    "U": "nm",
    "Emission λmax": 632
  },
  {
    "COMPOUND": "CN1/C(=C(C#N)/C=C/C=C2/C(=O)c3ccccc3S2(=O)=O)C(C)(C)c2ccccc21",
    "U": "nm",
    "Emission λmax": 595
  },
  {
    "COMPOUND": "CCN1/C(=C(C#N)/C=C/C=C2/C(=O)c3ccccc3S2(=O)=O)Sc2ccccc21",
    "U": "nm",
    "Emission λmax": 597
  },
  {
    "COMPOUND": "CN1/C(=C/C=C/C=C2/C(=O)c3ccccc3S2(=O)=O)C(C)(C)c2ccccc21 [I-SO, reference compound]",
    "U": "nm",
    "Emission λmax": 615
  },
  {
    "COMPOUND": "Cn1c(O)c(/C=C/C=C/c2cc[n+]3c(c2)C(C)(C)c2ccccc2-3)c(=O)n(C)c1=O",
    "U": "nm",
    "Emission λmax": 618
  },
  {
    "COMPOUND": "CC1(C)c2ccccc2-[n+]2ccc(/C(C#N)=C/C=C/C3=C(O)c4ccccc4S3(=O)=O)cc21",
    "U": "nm",
    "Emission λmax": 624
  },
  {
    "COMPOUND": "CCN1/C(=C/C=C/C=C2/C(=O)c3ccccc3S2(=O)=O)Sc2ccccc21 [S-SO, reference compound]",
    "U": "nm",
    "Emission λmax": 617
  },
  {
    "COMPOUND": "Cn1c(O)c(/C=C/C=C(\\C#N)c2cc[n+]3c(c2)C(C)(C)c2ccccc2-3)c(=O)n(C)c1=O",
    "U": "nm",
    "Emission λmax": 613
  }
]
